Where do the numbers come from? From the DeepSol protein solubility set.

Experiment notes: soluble on expression in E. coli; label from the status in PepcDB or PDB records

{"columns": ["Sequence code", "soluble on expression in E. coli"],
 "data": [
  ["MAHHHHHHMKNTVVRIKAELENVKRLFCDDEYLWIFNIRDSTSSLTRDNIQFRKTDILEIPNSRGTANFMIKWTEYPKYSTINFVNTKNSCSYEEVNNNEWRDFASFECRGIELIDFFPSNNFIVEDTKGKLYYDVNLSDQNWCDYNEEHEMCVGIYNLEYEVN", "soluble"],
  ["YENIQNIEDFYRFINAHALAVVHIMRDNCTVCHAVLPQIQDLLKDYPKAQLGVINQSNVEEIAGELSIFTVPVDLIFLKGKEMHRQARFIDMQSFEKQLYMMQNAID", "soluble"],
  ["LTFSLNFATSSKDSYGTGWLIDWKGDENKPSNTDPFLIYLATNLHVVDALRNPQDYEPYNKDSNGQDYGNRDITHFFALGKYTDPGLLGVETKE", "soluble"]
]}

###

Experiment notes: soluble on expression in E. coli; label from the status in PepcDB or PDB records
Property: soluble on expression in E. coli

These recorded examples may help you get a feel for the data.
{"columns": ["Sequence code", "Property", "Result"],
 "data": [
  ["MASKGAARVRKKEIVKVVHGALLRTNIKAQMASAAPPLGPQLGQRGLNVANFCKEFNKETGHFKQGVPLPTRITVKPDRTYDLEICTPTTTWLLKQAAGIGRGKASKDEIVGKLTVKHLYEIAKIKSRDKALQHVPLEQICRMLIKTCRTLGIDVQYHDLDPVELKEFLVARKEKVDAQLKDLADKKAAKMLRTT", "soluble on expression in E. coli", "not soluble"],
  ["MGGGERYNIPAPQSRNVSKNQQQLNRQKTKEQNSQMKIVHKKKERGHGYNSSAAAWQAMQNGGKNKNFPNNQSWNSSLSGPRLLFKSQANQNYAGAKFSEPPSPSVLPKPPSHWVPVSFNPSDKEIMTFQLKTLLKVQV", "soluble on expression in E. coli", "not soluble"],
  ["MDATDDIRAGELASDWSGSPDAGVVFIGRIHTPWNRLKECPRHGRADGPVCRIEVFETWLPALAGIDDGTLLEVFYWLHRSRRDLLLQCPRNDGDARGTFSIRSPLRPNPIGTSIARVDRRDGANLFIRGLDCLDGTPLVDLKPDRAEFMPLAPPKPGDFQVGEPRR", "soluble on expression in E. coli", "soluble"],
  ["SLLTALTADNQELFSLIDCSIDELTQIRSEQAFVCPMCHQSVILKAGPIKIPHFAHRKKNSCWYEAEAETEEHLRLKQLFAEKCLREKLSFQVEAYLPTLKQRPDLLIGKIAIEIQCSPLPIKRLVERTETYQTHGYQVVWILGERLVPKDKLTQLTKQFLYFSESLGFYLWSANKKQERIELLCHIEESQCQQFYRRKQSWDFYEKQLLEIFRLPTANLNLLPDRRHTGQLMHDYYQKLTQQLGYRNAQLLRTQSFLYTKGCHLLQLPPWFYYPGLKLIPSSEEDIHLKMLVWEALKTEEERLVTKQELWRILEAIFLEEGNFVWQPLPNIGLKKLFKIVGNNLLRWLQECYVLIKVNNKYLITSIFLREDPEKLIHWLKKVKKQHFFSHTC", "soluble on expression in E. coli", "soluble"]
]}

Kindly consider the entry below.
Entry under review: MENSDDIRLIVKIAQLYYEQDMTQAQIARELGIYRTTISRLLKRGRDQGMVTIAINYDYNENLWLEQQLKQKFGLKDVVVVSGNDEDEETQLAMMGLHGAQLLDRLLEPGDIVGFSWGRAVSALVENLPQAGQSRQLICVPIIGGPSGKLESRYHVNTLTYSAAAKLKGESHLADFPALLDNPLIRNGIMQSQHFKTISAYWDNLDIALVGIGSPAIRDGANWHAFYGGEESDDLNARQVAGDICSRFFDIHGAMVETNMSEKTLSIEMNKLKQARYSIGIAMSEEKYSGIIGALRGKYINCLVTNSSTAELLLK . Reported soluble on expression in E. coli?
soluble

###

Experiment notes: soluble on expression in E. coli; label from the status in PepcDB or PDB records
Property: soluble on expression in E. coli

{"columns": ["Sequence code", "Property", "Result"],
 "data": [
  ["MGSDKIHHHHHHMKMLVGKIPSELLAKILEKLKPGDKVIVGPKVGIDATAIDFGDYVLVASTDPITGTEEKIGFYAVNINANDVATFGARPKWFLVTILLPEGSEFNDVITIMDEVREVAEGMGISIVGGHTEVTPGLKKPIVVGTMLGEVEKENLVVPNPRPGDAIILTKGAGIEGTSIIAHEREEELKGVFGSNFVERAKAFINEISIVREALLSREFATAMHDPTEGGIANGLHEMADINGLGFRIFANKVIIREETRKICHFYDLDPLALISSGALLISTPRDHAKFLIERLLSHGIQASIIGEFLAEKKRVIIENGAERPLKRPESDELWKVV", "soluble on expression in E. coli", "not soluble"],
  ["MCLILFALDAHPRYRLVLAANRDEFYARPTAPAAFWDDAPQVLAGRDLTAGGTWCGVTRDGRIAAVTNYRDPGAHRVGARSRGELVAGFLGGDEAPSRWLEHLQRNGHDYNGFNLIFGDGNGLHYHSNRGAAASPLSPGIHGLSNHLLDTPWPKVARGRDALARLLATADEPAVDDLFAILANRTPAPDHLLPDTGVSLDWERLLSPLFITSPTYGTRSSTVILVDRSGQCTFVERSYNGAADHPRTVEYRFEVITLEHHHHHH", "soluble on expression in E. coli", "not soluble"]
]}

###

Experiment notes: soluble on expression in E. coli; label from the status in PepcDB or PDB records
Property: soluble on expression in E. coli

These recorded examples may help you get a feel for the data.
{"columns": ["Sequence code", "Property", "Result"],
 "data": [
  ["MYLDFYGLHAHPFQLTPDPAFFFGANGHTRAKSYLMFGLSQGEGFVVVTGDVGAGKTTLLSHMLRSLSDRSIRVARLSTTQLSADDTARVVARAFGLAEPAHPSKGAWLEAIEVFLTQVRAAGERCVLIVDEVQNMGFAALEELRMLGNLGIDDGHSALQTILVGQPQFRNTLAGPSLDQLRQRIVASCHLGPIEPEEVGHYMRYRLTQAGWRGDPSFEEAVFPAVYRHSGGLPRRINILCSRLLLAGFLQERHDLRAQDVEEVAAELEAEAGEVIGVAGETRAGARLDGRFIDAGSLADLEERVLGIEERLRKVDLVVRRGLLNFSDFVSELNAVWKGRPLEHHHHHH", "soluble on expression in E. coli", "not soluble"],
  ["GPGSMMEPTRNAEYSKQEYWDRRYTEEEHYDWFPSVYPMCVAAAFETVEAVYRVQRSTGAFNGTLKVLHLGTGNSTLCADIRATYEAKYPTEDSRPYRLVQAATDYSAVVIDRMQAKYGLAHPLEDVHWVVADIRDLSRVREQFGPFFDVVLDKGTMDALQADKANQNMEDDIERMLCEVSRCVEGGAGTRVYRVFVQITWEIPYLRLYYTTRNATHTFAWGTNVTYRFLGESDMYRVYTYEVSPPSSE", "soluble on expression in E. coli", "soluble"],
  ["MGHHHHHHSHMSFSKESSRLFGFVAGIKFPKMIQKVINENYVKYFNINMSEFKAPCEYESLNALFTRTLQIPRKFEEGFISPSDGKILECGSTFLANEEHFAFSIKGHAYSVEELLKDSFEKDELKNGLDYVNIYLSPKDYHRYHSPCDMQILSATYTSGVLYSVNEKHLERISNLYVKNERVSLKCQNEKGIFWLVFVGAQNVGKMRFNFDASIQTNAKISHNFTRKYENLNFKKGEELGNFELGSTIVLISQKGLLTFNLKVGQGIKFGEKIAD", "soluble on expression in E. coli", "soluble"],
  ["MGSDKIHHHHHHMIMKFFDREREINEILGILDETPDNIYFIYGPINSGKTTLMMEIINRLKDDKKYRIFYYNLRGVRISSYSDFFDIMFEIREDNKFKQMVKDADVLVEGIKFIEKTAKLFNESIILPSDLAKVILSKQKGFDVFRYLERVFREMNKKGLKPVIIIDELQRLKGLKSNGELIDDLFNFFVRLTKELHITHCFCLSSDSLFIEYVYDRAELRGRADYILVDDFDKETALKFMDFLSEDILGRKLSEDEKELIYSYVGGKPKDVYDVIIKLKLGKELKDILEFMLKEEIQKLKYFLEDVKEDDEELYNKIVDALKIFKENYEIEDIKIPKNIREFLVKKNILFLNPIEGTLKPQSFLVWNAIKKLLNGH", "soluble on expression in E. coli", "not soluble"]
]}

Entry under review: MGAGEKGIVEKEGYQLDTRRQAQAAYPRIKVLVIHYTADDFDSSLATLTDKQVSSHYLVPAVPPRYNGKPRIWQLVPEQELAWHAGISAWRGATRLNDTSIGIELENRGWQKSAGVKYFAPFEPAQIQALIPLAKDIIARYHIKPENVVAHADIAPQRKDDPGPLFPWQQLAQQGIGAWPDAQRVNFYLAGRAPHTPVDTASLLELLARYGYDVKPDMTPREQRRVIMAFQMHFRPTLYNGEADAETQAIAEALLEKYGQD . Reported soluble on expression in E. coli?
soluble
